The measured values listed here are drawn from ChEMBL document CHEMBL1201862.

System: Hs-578T
assayProtocol: NCI tumour cell line growth inhibition, 48 h
Calls of active or inactive are those of the source. Cut-off read from the data, not from the text of the source: active = GI50 up to about 1.1 µM and inactive = higher. *1 amine or outer side, *2 acyl side, *3 side chain or, on linkers, in order; H or OH if unused. Where a SMILES comes first, the peptide text is derived from it. [ ]: non-standard residue; d: D form. The star is where a group is joined. ξ: configuration not given here. X53 = CC(C)C[C@H](N[*:1])C1=N[C@H](C(=O)[*:2])CS1; Ile(3ξ) = CCC(C)[C@H](N)C(=O)O; Allyl(1,1-Me2) = C=CC(C)(C)*
Thanks in advance; please answer with one of these: Yes = active, No = inactive

Asked: In this assay, the call recorded for CN(C)c1ccc(/C=c2\c3cc([N+](=O)[O-])ccc3n3c2cc(-c2ccccc2)[n+]3C)cc1 was what?
Given back: No

Asked: In this assay, the call recorded for COc1ccc2nc(-n3c(/C=C/c4ccccc4O)nc4ccccc4c3=O)sc2c1 was what?
Given back: No

Asked: In this assay, the call recorded for CCCC(=O)Nc1cc(/C=C/C(=O)N2C[C@@H]3C[C@]34C2=CC(=O)c2[nH]cc(C)c24)n(C)c1 was what?
Given back: Yes

Asked: In this assay, the call recorded for CCOP(=O)(OCC)/C(C#N)=C/c1[nH]cnc1C was what?
Given back: No

Asked: In this assay, the call recorded for Cn1c(N=P(c2ccccc2)(c2ccccc2)c2ccccc2)c([N+](=O)[O-])c(=O)n(C)c1=O was what?
Given back: No

Asked: In this assay, the call recorded for c1ccc(NCCSc2nc3ccccc3s2)cc1 was what?
Given back: No

Asked: In this assay, the call recorded for C=CC(C)(C)OC[C@@H]1NC(=O)CNC(=O)[C@@H]2CCCN2C(=O)[C@H](C(C)CC)NC(=O)[C@@H]2CSC(=N2)[C@H](CC(C)C)NC1=O (stereo partly specified) (cyclo(GS(Allyl(1,1-Me2))[X53][Ile(3ξ)]P)) was what?
Given back: No

Asked: In this assay, the call recorded for O=C1/C(=C2\Sc3c(ccc(Cl)c3Cl)C2=O)Sc2c1ccc(Cl)c2Cl was what?
Given back: No

Asked: In this assay, the call recorded for Clc1ccc(C2C3COc4ccccc4C3=NN2c2ccccc2)cc1 (stereo unspecified) was what?
Given back: No

Asked: In this assay, the call recorded for CCOC(=O)c1c(N)nn2c1cc1cccccc12 was what?
Given back: No

Asked: In this assay, the call recorded for O=[N+]([O-])C(=C/c1cccs1)/C(=C\c1cccs1)[N+](=O)[O-] was what?
Given back: No

###

Tested on: A549
assayProtocol: NCI tumour cell line growth inhibition, 48 h
The source made the active and inactive calls. Rule as the data show it: active = GI50 up to about 1.1 µM and inactive = higher.
Thanks in advance; please answer with one of these: 1 (active), 0 (inactive)

Asked: In this assay, the call recorded for CN(C)c1ccc(/C=c2/c3ccccc3n3c2cc(NC(=O)NCCC[N+](C)(C)C)[n+]3C)cc1 was what?
Given back: 0

Asked: In this assay, the call recorded for COc1cc2cccc(/N=C\c3ccccc3Cl)c2cc1OC was what?
Given back: 0

Asked: In this assay, the call recorded for C=CCNC(=S)N1CC(C)C(=O)Nc2ccccc21 (configuration not stated) was what?
Given back: 0

Asked: In this assay, the call recorded for CN(C(=O)Cc1cccc(N=C=S)c1)[C@H]1CCCC[C@@H]1N1CCCC1 was what?
Given back: 0

Asked: In this assay, the call recorded for O=C(/C=C/c1ccccc1)NC1C=Nc2ccc([N+](=O)[O-])cc2NC1=O (configuration not stated) was what?
Given back: 0

Asked: In this assay, the call recorded for COc1cc(/C=C/C(=O)C2(C(=O)/C=C/c3cc(OC)c(OC)c(OC)c3)CCCCC2)cc(OC)c1OC was what?
Given back: 0

Asked: In this assay, the call recorded for N#CCCN(c1ccc(/C=C2\N=C(c3ccc(Cl)cc3)OC2=O)cc1)S(=O)(=O)c1ccccc1 was what?
Given back: 0

Asked: In this assay, the call recorded for Cc1cnc2[nH]c(-c3cccc(F)c3)cc(=O)c2c1 was what?
Given back: 1

Asked: In this assay, the call recorded for O=C(CSc1nnc(Cc2ccccc2)o1)Nc1ccc(Cl)cc1Cl was what?
Given back: 0

Asked: In this assay, the call recorded for CS(=O)(=O)CS(=O)(=O)OCCCl was what?
Given back: 0

Asked: In this assay, the call recorded for N/N=C(\CCN1CCCC1)CC(c1ccccc1)c1c(O)c2ccccc2oc1=O (configuration not stated) was what?
Given back: 0

Asked: In this assay, the call recorded for COc1cc2c(/C=C3/C(=O)Nc4ccccc43)c(Cl)n(Cc3ccc(Cl)cc3)c2cc1C was what?
Given back: 1

Asked: In this assay, the call recorded for N=c1sc2ccccc2n1CC[S-].c1ccc2c(c1)sc1[n+]2CCS1 was what?
Given back: 0

Asked: In this assay, the call recorded for Cc1cc(O)nc(NN2C(Cl)C(=O)C2c2cccc(Cl)c2)n1 (configuration not stated) was what?
Given back: 0

Asked: In this assay, the call recorded for COc1ccc(-c2oc3c(OC)c(OC)cc(O)c3c(=O)c2OC)cc1 was what?
Given back: 0

Asked: In this assay, the call recorded for c1ccc2c(c1)CCc1c-2n(CCN2CCOCC2)c2ccccc12 was what?
Given back: 0

Asked: In this assay, the call recorded for CCOP(=O)(OCC)/C(C#N)=C/c1[nH]cnc1C was what?
Given back: 0

###

Tested on: SNB-19
assayProtocol: NCI tumour cell line growth inhibition, 48 h
Active and inactive are the calls of the source. No stated cut-off is given here; in the data, active = GI50 up to about 1.1 µM and inactive = higher.
measurementName: GI50

Asked: Which GI50 reading was recorded for the compound Nc1nc(Cl)nc2c1ncn2C1CC(O)C(CO)O1 (stereo not drawn) ?
Given back: 1.47 µM (inactive)

Asked: Which GI50 reading was recorded for the compound COC1C=COC2(C)Oc3c(C)c(O)c4c(O)c(c(C5SCCS5)c(O)c4c3C2=O)NC(=O)/C(C)=C\C=CC(C)C(O)C(C)C(O)C(C)C(OC(C)=O)C1C (stereo not drawn) ?
Given back: 4.88 µM (inactive)

Asked: Which GI50 reading was recorded for the compound COc1ccc2nc(-n3c(/C=C/c4ccccc4O)nc4ccccc4c3=O)sc2c1 ?
Given back: 35.5 µM (inactive)

Asked: Which GI50 reading was recorded for the compound Cc1occ2c1C(=O)CC1C2[C@@H](O)CC2C(C)(C)CCC[C@]12C (stereo partly drawn) ?
Given back: > 100 µM (inactive)

Asked: Which GI50 reading was recorded for the compound CC(C)OC(=O)c1ccc(CCC2=CC(=O)C(Br)=CC2=O)cc1 ?
Given back: 15.3 µM (inactive)

Asked: Which GI50 reading was recorded for the compound COC(OC)[C@@H]1OC[C@H](n2cnc3c(N)ncnc32)[C@H]1O ?
Given back: 5.06 µM (inactive)

Asked: Which GI50 reading was recorded for the compound CCOC(=O)c1c(N)nn2c1cc1cccccc12 ?
Given back: 40.7 µM (inactive)

Asked: Which GI50 reading was recorded for the compound O=[N+]([O-])c1cccc(/C=N/C23CC4CC(CC(C4)C2)C3)c1 ?
Given back: > 100 µM (inactive)

###

System: SF-539
assayProtocol: NCI tumour cell line growth inhibition, 48 h
Active and inactive are the calls of the source. Cut-off read from the data, not from the text of the source: active = GI50 up to about 1.1 µM and inactive = higher.
Please go through the items and note down their GI50.

Asked: Which GI50 reading was recorded for the molecule CC(=O)c1ccc2c3c1O[C@H]1c4[nH]c5ccccc5c4C[C@@]4(O)[C@@H](C2)N(CC2CC2)CC[C@]314 ?
Given back: 13.6 µM (inactive)

Asked: Which GI50 reading was recorded for the molecule CCC1C(C(=O)Nc2ccccc2C)=C(C)NC(C)=C1c1ccccc1C (stereo not drawn) ?
Given back: > 100 µM (inactive)

Asked: Which GI50 reading was recorded for the molecule CC(=O)OC1C(Oc2c(C)cc3c(c2O)[C@@H](C)CC[C@@H]3[C@@H](C)CCC=C(C)C)OCC(O)C1O (stereo partly drawn) ?
Given back: 18.5 µM (inactive)

Asked: Which GI50 reading was recorded for the molecule Clc1nc(-[n+]2ccc(-c3ccncc3)cc2)nc(Nc2ccccc2)c1Cl ?
Given back: > 100 µM (inactive)

Asked: Which GI50 reading was recorded for the molecule O=C1/C(=C/c2ccc(O)cc2)CCc2ccccc21 ?
Given back: 18 µM (inactive)

Asked: Which GI50 reading was recorded for the molecule Clc1ccc(C2C3COc4ccccc4C3=NN2c2ccccc2)cc1 (stereo not drawn) ?
Given back: 34.4 µM (inactive)

Asked: Which GI50 reading was recorded for the molecule C=C=C(Sc1ccccc1)C(C)(C)O ?
Given back: > 100 µM (inactive)

Asked: Which GI50 reading was recorded for the molecule Cn1c(N=P(c2ccccc2)(c2ccccc2)c2ccccc2)c([N+](=O)[O-])c(=O)n(C)c1=O ?
Given back: > 100 µM (inactive)

###

Tested on: EKVX
assayProtocol: NCI tumour cell line growth inhibition, 48 h
Active and inactive are the calls of the source. Rule as the data show it: active = GI50 up to about 1.1 µM and inactive = higher.
Thanks in advance; please answer with one of these: Y for active, N for inactive

Asked: In this assay, the call recorded for COC(=O)c1c2c(cc3c1CC1(Cc4ccccc4C1=O)C3)CCC2 (stereo not given) was what?
Given back: N

Asked: In this assay, the call recorded for CNc1ncnc2c1cnn2Cc1cn(COCC(O)CO)nn1 (stereo not given) was what?
Given back: N

Asked: In this assay, the call recorded for CCc1ccc2nccc(NCCCN(C)C)c2c1[N+](=O)[O-] was what?
Given back: N

Asked: In this assay, the call recorded for C/C(=N/NC(=S)N1CC2CCC(CC2)C1)c1cnccn1 was what?
Given back: Y

Asked: In this assay, the call recorded for Cc1cc(O)nc(NN2C(Cl)C(=O)C2c2cccc(Cl)c2)n1 (stereo not given) was what?
Given back: N
